Cited source for all entries: PubChem BioAssay AID1963971

Test system: 953936-095-R-J2-PDC spheroids with HUVEC/MSC, viability
ASSAY_PROCEDURE: Anticancer human tumor 953936-095-R-J2-PDC patient-derived cervical squamous cell carcinoma cell line growth inhibition [PI3K]
EXPERIMENTAL_PARAMETERS: second compound 0.00316 µM; first compound 0.1 µM; hits give low values
# viability, T/C annotations

compound="CC(=O)c1c(C)c2cnc(Nc3ccc(N4CCNCC4)cn3)nc2n(C2CCCC2)c1=O + COc1c(OCCCN2CCOCC2)ccc2c3n(c(=NC(=O)c4cnc(N)nc4)nc12)CCN3" reported_property="viability, T/C" reading=81.4%
compound="CC(C)NCC(C(=O)N1CCN(c2ncnc3c2C(C)CC3O)CC1)c1ccc(Cl)cc1 (stereo unspecified) + COc1c(OCCCN2CCOCC2)ccc2c3n(c(=NC(=O)c4cnc(N)nc4)nc12)CCN3" reported_property="viability, T/C" reading=85.2%
compound="C#Cc1c(F)ccc2cc(O)cc(-c3ncc4c(N5CC6CCC(C5)N6)nc(OCC56CCCN5CC(F)C6)nc4c3F)c12 (stereo unspecified) + COc1c(OCCCN2CCOCC2)ccc2c3n(c(=NC(=O)c4cnc(N)nc4)nc12)CCN3" reported_property="viability, T/C" reading=87.8%
compound="CC1(C)CCC(CN2CCN(c3ccc(C(=O)NS(=O)(=O)c4ccc(NCC5CCOCC5)c([N+](=O)[O-])c4)c(Oc4cnc5[nH]ccc5c4)c3)CC2)=C(c2ccc(Cl)cc2)C1 + COc1c(OCCCN2CCOCC2)ccc2c3n(c(=NC(=O)c4cnc(N)nc4)nc12)CCN3" reported_property="viability, T/C" reading=84.2%
compound="C#Cc1c(F)ccc2cc(O)cc(-c3ncc4c(N5CC6CCC(C5)N6)nc(OCC56CCCN5CC(F)C6)nc4c3F)c12 (stereo unspecified) + CC(Nc1ccc2c(c1)OCCn1cc(N3C(=O)OCC3C(F)F)nc1-2)C(N)=O" reported_property="viability, T/C" reading=110%

Here is another compound to look at.
Task: Need viability, T/C, item C=CC(=O)N1CCN(c2nc(=O)n(-c3c(C)ccnc3C(C)C)c3nc(-c4c(O)cccc4F)c(F)cc23)C(C)C1 (stereo unspecified) + CC(Nc1ccc2c(c1)OCCn1cc(N3C(=O)OCC3C(F)F)nc1-2)C(N)=O
Result: 94.5%

====

Tested on: 953936-095-R-J2-PDC spheroids with HUVEC/MSC, viability
ASSAY_PROCEDURE: Anticancer human tumor 953936-095-R-J2-PDC cell line growth inhibition [PI3K];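 further: spheroids exposed to compounds for seven days before read-out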
EXPERIMENTAL_PARAMETERS: second compound 0.1 µM; first compound 10 µM; hits give low values
# note: boundary value 50% maps to n; viability, T/C below it maps to y

compound="C=CC(=O)N1CCN(c2nc(=O)n(-c3c(C)ccnc3C(C)C)c3nc(-c4c(O)cccc4F)c(F)cc23)C(C)C1 (configuration not stated) + COc1c(OCCCN2CCOCC2)ccc2c3n(c(=NC(=O)c4cnc(N)nc4)nc12)CCN3" category=y

Task: hey, is viability, T/C for C=CC(=O)N1CCN(c2nc(=O)n(-c3c(C)ccnc3C(C)C)c3nc(-c4c(O)cccc4F)c(F)cc23)C(C)C1 (configuration not stated) + CC(Nc1ncnc2nc[nH]c12)c1cc2cccc(Cl)c2c(=O)n1-c1ccccc1 lower than 50% or not?
Result: n

Task: hey, is viability, T/C for Cn1nccc1Nc1nccc(-c2ccn(C(CO)c3ccc(Cl)c(F)c3)c(=O)c2)n1 (configuration not stated) + COc1c(OCCCN2CCOCC2)ccc2c3n(c(=NC(=O)c4cnc(N)nc4)nc12)CCN3 lower than 50% or not?
Result: y

Task: hey, is viability, T/C for CC1(C)CCC(CN2CCN(c3ccc(C(=O)NS(=O)(=O)c4ccc(NCC5CCOCC5)c([N+](=O)[O-])c4)c(Oc4cnc5[nH]ccc5c4)c3)CC2)=C(c2ccc(Cl)cc2)C1 + Cc1nc(NC(=O)N2CCCC2C(N)=O)sc1-c1ccnc(C(C)(C)C(F)(F)F)c1 lower than 50% or not?
Result: y

Task: hey, is viability, T/C for C[C@@H](NC(=O)c1ncnc(N)c1Cl)c1ncc(C(=O)Nc2cc(C(F)(F)F)c(Cl)cn2)s1 + CC(Nc1ccc2c(c1)OCCn1cc(N3C(=O)OCC3C(F)F)nc1-2)C(N)=O lower than 50% or not?
Result: n

Task: hey, is viability, T/C for CNC(=O)c1ccc(N2C(=S)N(c3ccc(C#N)c(C(F)(F)F)c3)C(=O)C2(C)C)cc1F + COc1c(OCCCN2CCOCC2)ccc2c3n(c(=NC(=O)c4cnc(N)nc4)nc12)CCN3 lower than 50% or not?
Result: y

Task: hey, is viability, T/C for C#Cc1c(F)ccc2cc(O)cc(-c3ncc4c(N5CC6CCC(C5)N6)nc(OCC56CCCN5CC(F)C6)nc4c3F)c12 (configuration not stated) + CC(Nc1ncnc2nc[nH]c12)c1cc2cccc(Cl)c2c(=O)n1-c1ccccc1 lower than 50% or not?
Result: n
